Please respond with reported TGI for every item in the list.
- Tested on: COLO 205 colon
- Assay Method Text: NCI tumour cell line growth inhibition, 48 h

For each of the items listed, what is its TGI?
1. COc1cc(Br)c(CC2C3=C(CCN2C(=O)C2CCC2)CC2(CC3)OCCO2)cc1O (centres undefined)
2. COc1ccc(CNc2cnc3ccc(N)cc3n2)cc1OC
3. Cn1cc(NC(=O)c2cc(NC(=O)CCCCCCCCCC(=O)Nc3cc(C(=O)Nc4cc(C(=O)NCCC(=N)N)n(C)c4)n(C)c3)cn2C)cc1C(=O)NCCC(=N)N

1: 34.8 µM; 2: > 100 µM; 3: > 100 µM
